- measurement description: self-splicing fitness, log relative to wild type (ln ratio); higher = more splicing; Tetrahymena group I intron in knt gene, E. coli kanamycin selection, DiMSum; sequences stand for … in CUCUCU…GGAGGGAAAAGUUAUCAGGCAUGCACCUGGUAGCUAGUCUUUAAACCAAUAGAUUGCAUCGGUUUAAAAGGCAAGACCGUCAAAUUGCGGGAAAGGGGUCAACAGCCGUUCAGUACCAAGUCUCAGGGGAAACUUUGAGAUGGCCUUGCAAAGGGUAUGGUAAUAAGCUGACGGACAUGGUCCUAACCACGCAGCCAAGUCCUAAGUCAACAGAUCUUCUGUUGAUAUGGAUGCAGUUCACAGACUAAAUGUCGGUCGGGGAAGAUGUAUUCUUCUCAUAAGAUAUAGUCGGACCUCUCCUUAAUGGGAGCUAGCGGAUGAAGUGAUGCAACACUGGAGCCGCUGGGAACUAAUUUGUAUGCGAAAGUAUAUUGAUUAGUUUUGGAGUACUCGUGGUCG;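 also: selection with 25 µg/mL kanamycin versus none on LB agar overnight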
- settings: 37 °C
readout: self-splicing fitness (ln)
Write no unit; give the number alone.

Task item: // returns reported self-splicing fitness (ln) for input GCGGAGCAAUAUUACGUUAG
Reply: -1.99

Task item: // returns reported self-splicing fitness (ln) for input GUUUAGCAAUAUUACGGAAA
Reply: -2.07

Task item: // returns reported self-splicing fitness (ln) for input ACGCAGCAAUAUUACGGGGA
Reply: -2.14

Task item: // returns reported self-splicing fitness (ln) for input GAAAAGCAAUAUUACGCAGU
Reply: -1.69

Task item: // returns reported self-splicing fitness (ln) for input UCUCAGCAAUAUUACGUGCG
Reply: -1.44

Task item: // returns reported self-splicing fitness (ln) for input AGUGAGCAAUAUUACGGUCG
Reply: -1.97

Task item: // returns reported self-splicing fitness (ln) for input GCAGAGCAAUAUUACGCGUC
Reply: -2.03

Task item: // returns reported self-splicing fitness (ln) for input ACCUAGCAAUAUUACGCUCC
Reply: -0.204

Task item: // returns reported self-splicing fitness (ln) for input AUAGAGCAAUAUUACGCAAA
Reply: -1.03

Task item: // returns reported self-splicing fitness (ln) for input CACCAGCAAUAUUACGGUCU
Reply: -1.04

Task item: // returns reported self-splicing fitness (ln) for input GUCUAGCAAUAUUACGGAGU
Reply: 0.121

Task item: // returns reported self-splicing fitness (ln) for input UUUAAGCAAUAUUACGAAGC
Reply: -0.328

Task item: // returns reported self-splicing fitness (ln) for input AUACAGCAAUAUUACGUCAA
Reply: -1.05

Task item: // returns reported self-splicing fitness (ln) for input ACACAGCAAUAUUACGCUGC
Reply: -1.14

Task item: // returns reported self-splicing fitness (ln) for input UUCGAGCAAUAUUACGGGUC
Reply: -2.89

Task item: // returns reported self-splicing fitness (ln) for input GAGAAGCAAUAUUACGGCAU
Reply: 0.567

Task item: // returns reported self-splicing fitness (ln) for input AUCUAGCAAUAUUACGCCCG
Reply: -0.733

Task item: // returns reported self-splicing fitness (ln) for input UAUAAGCAAUAUUACGAGGU
Reply: -2.54

Task item: // returns reported self-splicing fitness (ln) for input CGUCAGCAAUAUUACGCCUG
Reply: 0.582

Task item: // returns reported self-splicing fitness (ln) for input CAGAAGCAAUAUUACGUAGG
Reply: 0.297

Task item: // returns reported self-splicing fitness (ln) for input GUACAGCAAUAUUACGGCUC
Reply: 1.05

Task item: // returns reported self-splicing fitness (ln) for input GUGCAGCAAUAUUACGCAGC
Reply: -1.3

Task item: // returns reported self-splicing fitness (ln) for input GUGUAGCAAUAUUACGCAAU
Reply: -1.26

Task item: // returns reported self-splicing fitness (ln) for input UUGCAGCAAUAUUACGCUCA
Reply: -0.278

Task item: // returns reported self-splicing fitness (ln) for input UAGGAGCAAUAUUACGUGCU
Reply: -1.05

Task item: // returns reported self-splicing fitness (ln) for input ACAUAGCAAUAUUACGGACG
Reply: -0.653

Task item: // returns reported self-splicing fitness (ln) for input CGUUAGCAAUAUUACGGUCG
Reply: 0.369

Task item: // returns reported self-splicing fitness (ln) for input ACGCAGCAAUAUUACGUGUG
Reply: -2.31

Task item: // returns reported self-splicing fitness (ln) for input AUGCAGCAAUAUUACGACAG
Reply: -0.339

Task item: // returns reported self-splicing fitness (ln) for input AACUAGCAAUAUUACGCACA
Reply: 0.145
